Biological target: Voltage-dependent T-type calcium channel subunit alpha-1H (Homo sapiens, UniProt O95180)
Sequence (O95180 whole entry): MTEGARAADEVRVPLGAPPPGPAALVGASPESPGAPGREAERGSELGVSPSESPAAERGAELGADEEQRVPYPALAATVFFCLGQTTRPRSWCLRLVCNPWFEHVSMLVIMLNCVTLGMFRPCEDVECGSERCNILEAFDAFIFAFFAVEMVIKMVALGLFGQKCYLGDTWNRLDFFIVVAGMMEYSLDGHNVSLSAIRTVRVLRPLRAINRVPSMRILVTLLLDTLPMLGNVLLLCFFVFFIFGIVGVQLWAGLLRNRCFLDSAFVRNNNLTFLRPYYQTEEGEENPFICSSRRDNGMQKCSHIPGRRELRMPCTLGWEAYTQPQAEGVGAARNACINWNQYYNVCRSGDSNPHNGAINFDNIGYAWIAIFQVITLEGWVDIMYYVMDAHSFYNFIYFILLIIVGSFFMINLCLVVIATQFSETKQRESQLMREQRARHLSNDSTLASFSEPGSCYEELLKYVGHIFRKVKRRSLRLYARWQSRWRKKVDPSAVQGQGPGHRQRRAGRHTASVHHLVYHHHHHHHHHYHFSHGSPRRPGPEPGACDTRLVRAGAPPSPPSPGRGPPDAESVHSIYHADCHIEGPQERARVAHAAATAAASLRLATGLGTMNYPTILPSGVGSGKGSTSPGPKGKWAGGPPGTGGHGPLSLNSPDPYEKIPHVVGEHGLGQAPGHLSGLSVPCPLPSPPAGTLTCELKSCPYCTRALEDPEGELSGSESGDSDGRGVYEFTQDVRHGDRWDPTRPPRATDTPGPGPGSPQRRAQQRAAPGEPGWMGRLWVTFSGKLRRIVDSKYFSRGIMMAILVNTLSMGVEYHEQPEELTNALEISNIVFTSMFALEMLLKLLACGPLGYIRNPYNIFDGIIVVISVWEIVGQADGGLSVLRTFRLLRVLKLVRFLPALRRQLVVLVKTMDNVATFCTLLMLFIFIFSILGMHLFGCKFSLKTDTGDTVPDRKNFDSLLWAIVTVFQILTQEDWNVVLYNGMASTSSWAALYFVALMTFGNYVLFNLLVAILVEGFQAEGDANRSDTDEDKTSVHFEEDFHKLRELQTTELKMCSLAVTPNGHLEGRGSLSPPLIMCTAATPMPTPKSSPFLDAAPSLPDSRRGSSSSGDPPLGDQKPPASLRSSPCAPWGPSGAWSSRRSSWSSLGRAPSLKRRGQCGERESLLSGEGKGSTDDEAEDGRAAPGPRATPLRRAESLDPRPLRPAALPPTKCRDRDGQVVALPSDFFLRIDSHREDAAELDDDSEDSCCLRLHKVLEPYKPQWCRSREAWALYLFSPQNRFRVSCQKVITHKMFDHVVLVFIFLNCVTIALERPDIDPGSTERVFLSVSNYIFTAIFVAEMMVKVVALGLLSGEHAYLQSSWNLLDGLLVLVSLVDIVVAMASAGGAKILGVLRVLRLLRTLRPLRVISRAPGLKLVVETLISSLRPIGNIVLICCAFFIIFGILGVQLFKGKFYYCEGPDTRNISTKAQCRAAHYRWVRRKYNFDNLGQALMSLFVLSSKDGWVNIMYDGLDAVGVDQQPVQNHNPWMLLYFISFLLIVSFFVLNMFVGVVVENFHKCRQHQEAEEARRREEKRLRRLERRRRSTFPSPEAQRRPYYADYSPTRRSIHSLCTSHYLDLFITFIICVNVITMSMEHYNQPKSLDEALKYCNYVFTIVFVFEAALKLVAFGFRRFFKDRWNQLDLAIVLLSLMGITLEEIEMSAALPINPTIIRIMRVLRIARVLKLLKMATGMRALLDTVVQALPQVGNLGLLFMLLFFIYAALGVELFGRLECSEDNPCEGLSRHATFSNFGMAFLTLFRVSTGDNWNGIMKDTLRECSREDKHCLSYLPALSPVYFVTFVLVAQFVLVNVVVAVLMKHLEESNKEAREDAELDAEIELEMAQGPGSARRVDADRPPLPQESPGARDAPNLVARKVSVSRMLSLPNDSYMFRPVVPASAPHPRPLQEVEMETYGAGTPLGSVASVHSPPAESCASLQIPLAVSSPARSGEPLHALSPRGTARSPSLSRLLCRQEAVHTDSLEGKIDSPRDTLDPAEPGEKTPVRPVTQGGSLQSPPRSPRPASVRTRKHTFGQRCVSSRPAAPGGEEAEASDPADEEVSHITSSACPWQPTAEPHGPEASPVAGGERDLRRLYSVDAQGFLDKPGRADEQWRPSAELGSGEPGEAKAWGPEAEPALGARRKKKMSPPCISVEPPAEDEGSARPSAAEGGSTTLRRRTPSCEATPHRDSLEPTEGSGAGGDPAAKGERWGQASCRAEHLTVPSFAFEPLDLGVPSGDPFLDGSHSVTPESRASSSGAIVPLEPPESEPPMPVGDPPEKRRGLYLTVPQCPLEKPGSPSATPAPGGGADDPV
Test: Inhibition of human CaV3.2 expressed in HEK293 cells assessed as suppression of T-current amplitude after 10 mins by whole cell patch clamp method
pIC50: −log10 of the molar value.
Readings of pIC50 for the listed molecules

>  <molecule>
CCC(=CCc1c(O)cc2c(c1O)C(=O)CC(c1ccccc1O)O2)CC (stereo unspecified)

>  <systemUnderTest>
Voltage-dependent T-type calcium channel subunit alpha-1H (Homo sapiens, UniProt O95180)

>  <pIC50>
6.41

$$$$
>  <molecule>
O=C1CC(c2ccc(O)cc2)Oc2cc(O)c(CC=C3CCCC3)c(O)c21 (stereo unspecified)

>  <systemUnderTest>
Voltage-dependent T-type calcium channel subunit alpha-1H (Homo sapiens, UniProt O95180)

>  <pIC50>
6.34

$$$$
>  <molecule>
CC(C)CCc1c(O)cc2c(c1O)C(=O)CC(c1ccc(O)cc1)O2 (stereo unspecified)

>  <systemUnderTest>
Voltage-dependent T-type calcium channel subunit alpha-1H (Homo sapiens, UniProt O95180)

>  <pIC50>
6.32

$$$$
>  <molecule>
O=C1CC(c2ccc(O)cc2)Oc2cc(O)c(CCC3CCCC3)c(O)c21 (stereo unspecified)

>  <systemUnderTest>
Voltage-dependent T-type calcium channel subunit alpha-1H (Homo sapiens, UniProt O95180)

>  <pIC50>
6.30

$$$$
>  <molecule>
C=C(C)[C@H](CC=C(C)C)Cc1c(O)cc(O)c2c1O[C@H](c1ccc(O)cc1O)CC2=O

>  <systemUnderTest>
Voltage-dependent T-type calcium channel subunit alpha-1H (Homo sapiens, UniProt O95180)

>  <pIC50>
6.00

$$$$
>  <molecule>
CC(C)=CCc1c(O)cc2c(c1O)C(=O)CC(c1ccccc1O)O2 (stereo unspecified)

>  <systemUnderTest>
Voltage-dependent T-type calcium channel subunit alpha-1H (Homo sapiens, UniProt O95180)

>  <pIC50>
6.19

$$$$
>  <molecule>
CC(C)=CCc1ccc2c(c1O)C(=O)CC(c1ccccc1O)O2 (stereo unspecified)

>  <systemUnderTest>
Voltage-dependent T-type calcium channel subunit alpha-1H (Homo sapiens, UniProt O95180)

>  <pIC50>
5.90

$$$$
>  <molecule>
CCC(=CCc1c(O)cc2c(c1O)C(=O)CC(c1ccc(O)cc1)O2)CC (stereo unspecified)

>  <systemUnderTest>
Voltage-dependent T-type calcium channel subunit alpha-1H (Homo sapiens, UniProt O95180)

>  <pIC50>
6.59

$$$$
>  <molecule>
CC(C)=CCc1c(O)cc2c(c1O)C(=O)CC(c1ccc(O)cc1)O2 (racemic)

>  <systemUnderTest>
Voltage-dependent T-type calcium channel subunit alpha-1H (Homo sapiens, UniProt O95180)

>  <pIC50>
6.00

$$$$
>  <molecule>
CC(C)=CCc1c(O)cc2c(c1O)C(=O)CC(c1cccc(O)c1)O2 (stereo unspecified)

>  <systemUnderTest>
Voltage-dependent T-type calcium channel subunit alpha-1H (Homo sapiens, UniProt O95180)

>  <pIC50>
5.99

$$$$
>  <molecule>
CC(C)=CCc1c(O)cc(O)c2c1O[C@H](c1ccc(O)cc1)CC2=O

>  <systemUnderTest>
Voltage-dependent T-type calcium channel subunit alpha-1H (Homo sapiens, UniProt O95180)

>  <pIC50>
6.00

$$$$
